Biological target: T1, human IL-5 with his-tag (rhIL-5-his) (human, UniProt P05113 20-134)
T1 sequence: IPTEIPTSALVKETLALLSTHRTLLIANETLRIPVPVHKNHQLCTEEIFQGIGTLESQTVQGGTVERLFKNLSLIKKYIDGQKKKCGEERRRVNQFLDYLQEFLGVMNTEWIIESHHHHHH
Assay: cell-based or functional assay
recorded.endpoint: IC50 of inhibition of IL-5 induced TF1 cell proliferation (nM)
# output: bare number, implied unit nM

Please review the following examples before continuing.
h1705-010 (antibody, human IgG1, kappa, V domains shown) VH: EVQLVESGGGLVQPGGSLRLSCAASGFTFSHYYMAWVRQAPGKGLEWVSSISYEGDITYYGDSVKGRFTISRDNSKNTLYLQMNSLRAEDTAVYYCASQTLRESFDYWGQGTLVTVSS VL: DIQMTQSPSSVSASVGDRVTITCRASQDIANYLSWYQQKPGKSPKLVIYGTSNLEVGVPSRFSGSRSGSDYTLTISSLQPEDFATYFCLQDKEFPRTFGGGTKVEIKR | 0.3
h1705-005 (antibody, human IgG1, kappa, V domains shown) VH: EVQLVESGGGLVQPGGSLRLSCAASGFTFSHYYMAWVRQAPGKGLEWVTSISYEGDITYYGDSVKGRFTISRDNSKNTLYLQMNSLRAEDTATYYCASQTLRESFDYWGQGTLVTVSS VL: DIQMTQSPSSVSASVGDRVTITCRASQDIANYLSWYQQKPGKAPKLLIYGTSNLEVGVPSRFSGSGSGTDFTLTISSLQPEDFATYYCLQDKEFPRTFGGGTKVEIKR | 0.3
h1705-004 (antibody, human IgG1, kappa, V domains shown) VH: EVQLVESGGGLVQPGGSLRLSCAASGFTFSHYYMAWVRQAPGKGLEWVSSISYEGDITYYGDSVKGRFTISRDNSKNTLYLQMNSLRAEDTAVYYCASQTLRESFDYWGQGTLVTVSS VL: DIQMTQSPSSVSASVGDRVTITCRASQDIANYLSWYQQKPGKAPKLLIYGTSNLEVGVPSRFSGSGSGTDFTLTISSLQPEDFATYYCLQDKEFPRTFGGGTKVEIKR | 0.3
h1706-006 (antibody, human IgG1, kappa, V domains shown, Constant regions as for h1706-003) VH: EVQLVESGGGLVQPGGSLRLSCAASGFTFSHYYMAWVRQAPGKGLEWVSSINYEGNSAYYGDSVKGRFTISRDNSKNTLYLQMNSLRAEDTAVYYCATETLRESLDYWGQGTMVTVSS VL: DIQMTQSPSSVSASVGDRVTITCRASQDIGNYLSWYQQKPGKSPKLLIYSASNLEVGVPSRFSGSGSGTDFTLTISSLQPEDFATYYCLQHKQFPRTFGGGTKVEIKR | 0.34

Identify measured IC50 of inhibition of IL-5 induced TF1 cell proliferation corresponding to h1705-011 (antibody, human IgG1, kappa, V domains shown) VH: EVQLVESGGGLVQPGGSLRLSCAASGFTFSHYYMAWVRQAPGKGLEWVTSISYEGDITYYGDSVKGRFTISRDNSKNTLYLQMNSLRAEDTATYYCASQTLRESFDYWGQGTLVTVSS VL: DIQMTQSPSSVSASVGDRVTITCRASQDIANYLSWYQQKPGKSPKLVIYGTSNLEVGVPSRFSGSRSGSDYTLTISSLQPEDFATYFCLQDKEFPRTFGGGTKVEIKR
0.28
